# subjectOfTest: T1, recombinant AdV5 hexon protein (Human adenovirus C serotype 5 (HAdV-5), UniProt P04133)
# T1 construct: source: bought: AbD Serotech
# experimentNotes: SPR
# runParameters: both partners purified
outcomeMeasure: kon (M⁻¹ s⁻¹)

binder="h9C12 Fab G53P (Fab, V domains shown, source: HEK293E, transiently co-transfected, purified (CaptureSelect CH1, SEC Superdex 75)) VH: VQLKQSGPGLLQPSQRLSITCTVSGFSLGRYGVHWIRQSPGKGLEWLGVIWRPGTTDYNAVFMSRLSINKDDSKSQVFFTMNSLRPDDTAIYYCARQGSNFPLAYWGQGTLVTVSA VL: NIVMTQTPKFLLVSIGDSITITCKASQSVTNDAAWYQKKPGQSPQLLIYQASTRYTGVPDRFSGSGYGTDFTFTISAVQAEDLAVYFCHQDYSSPLTFGAGTKLELK" observedresult=239000
binder="h9C12 Fab G98C/S99H (Fab, V domains shown, source: HEK293E, transiently co-transfected, purified (CaptureSelect CH1, SEC Superdex 75)) VH: VQLKQSGPGLLQPSQRLSITCTVSGFSLGRYGVHWIRQSPGKGLEWLGVIWRGGTTDYNAVFMSRLSINKDDSKSQVFFTMNSLRPDDTAIYYCARQCHNFPLAYWGQGTLVTVSA VL: NIVMTQTPKFLLVSIGDSITITCKASQSVTNDAAWYQKKPGQSPQLLIYQASTRYTGVPDRFSGSGYGTDFTFTISAVQAEDLAVYFCHQDYSSPLTFGAGTKLELK" observedresult=18000
binder="9C12 Fab (original mouse format, SPR) (Fab, V domains shown, also called mouse WT 9C12; source: gene fragment synthesized as cDNA; host stated only for the h9C12 variants (HEK293E)) VH: VQLKQSGPGLLQPSQRLSITCTVSGFSLGRYGVHWIRQSPGKGLEWLGVIWRGGTTDYNAVFMSRLSINKDDSKSQVFFTMNSLRPDDTAIYYCARQGSNFPLAYWGQGTLVTVSA VL: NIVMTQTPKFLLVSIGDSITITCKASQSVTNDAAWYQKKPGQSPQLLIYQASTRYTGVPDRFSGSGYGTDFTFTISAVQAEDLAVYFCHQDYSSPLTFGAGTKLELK" observedresult=447000
